Target: His6-Flag-TEV-NLRP3 (134-1036) (Homo sapiens)
Construct: fused on or other part: N-terminal His6 tag, Flag tag and TEV cleavage site
Sequence (Q96P20 134-1036 limits assumed): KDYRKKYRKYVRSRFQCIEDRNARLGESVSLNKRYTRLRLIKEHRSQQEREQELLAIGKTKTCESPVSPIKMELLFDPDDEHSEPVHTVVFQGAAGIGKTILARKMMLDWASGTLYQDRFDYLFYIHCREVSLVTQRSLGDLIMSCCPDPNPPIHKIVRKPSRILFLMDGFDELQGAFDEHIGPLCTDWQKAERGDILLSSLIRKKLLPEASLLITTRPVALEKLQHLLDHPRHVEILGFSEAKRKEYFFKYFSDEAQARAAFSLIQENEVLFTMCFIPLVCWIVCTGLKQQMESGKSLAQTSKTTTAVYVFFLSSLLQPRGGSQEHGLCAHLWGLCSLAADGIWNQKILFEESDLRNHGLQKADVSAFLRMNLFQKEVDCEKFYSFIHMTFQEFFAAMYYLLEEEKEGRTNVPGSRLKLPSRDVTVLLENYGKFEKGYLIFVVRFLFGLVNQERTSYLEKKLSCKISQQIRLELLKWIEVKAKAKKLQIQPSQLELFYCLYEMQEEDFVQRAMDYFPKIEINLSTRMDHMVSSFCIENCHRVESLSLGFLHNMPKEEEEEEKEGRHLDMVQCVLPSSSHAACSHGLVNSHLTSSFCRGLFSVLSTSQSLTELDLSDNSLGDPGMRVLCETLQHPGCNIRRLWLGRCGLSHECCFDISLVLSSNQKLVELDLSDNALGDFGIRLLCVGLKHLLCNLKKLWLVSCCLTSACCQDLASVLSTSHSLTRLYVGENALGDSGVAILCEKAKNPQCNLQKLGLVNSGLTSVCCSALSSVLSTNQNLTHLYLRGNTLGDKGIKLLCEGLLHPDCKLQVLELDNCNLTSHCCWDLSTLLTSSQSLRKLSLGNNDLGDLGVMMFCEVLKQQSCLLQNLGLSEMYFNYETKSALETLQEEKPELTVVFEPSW
Test: NLRP3 fluorescence polarization (FP) binding assay, competition with probe NP3-301
Details: competition with NP3-301 for binding to NLRP3 (134-1036), 30 nM protein
parameter-measured: IC50

Look over these answered cases.
stdin: Consider the compound "Cc1cc(C(F)(F)F)cc(O)c1-c1ccc2oc(N3CC4(COC4)C3)nc2n1" and give its measured IC50.
stdout: 100 to 500 nM

stdin: Then CCN1CCCC(N2CC(=O)Nc3cc(-c4c(C)cc(C(F)(F)F)cc4O)nnc32)C1 (stereo not shown) ?
stdout: ≤ 100 nM

stdin: Then "Cc1cc(-c2ccc(C(F)(F)F)cc2O)nc2nc(N3CCOCC3)nn12" ?
stdout: ≤ 100 nM

Would you kindly look at the next entry?
stdin: Consider the compound "Cc1cc(C(F)(F)F)cc(O)c1-c1cc(C)n2nc(N[C@H]3CCCN(CCO)C3)nc2n1" and give its measured IC50.
stdout: ≤ 100 nM
